Molecular target: T1, human TREM2 (triggering receptor expressed on myeloid cells 2) (human) (UniProt Q9NZC2)
T1 sequence (looked up): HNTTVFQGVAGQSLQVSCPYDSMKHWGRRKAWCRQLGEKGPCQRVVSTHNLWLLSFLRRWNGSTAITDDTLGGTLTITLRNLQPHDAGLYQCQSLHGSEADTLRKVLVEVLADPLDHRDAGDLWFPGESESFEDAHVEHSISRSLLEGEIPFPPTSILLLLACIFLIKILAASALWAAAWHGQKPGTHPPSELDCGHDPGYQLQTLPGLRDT
Experiment: 2nd screen, 100 nM Ab
measurement.type: Binding Signal (fold over 6E7 parental antibody) (fold)
Output spec: scalar in fold, unitless text.

As a guide, the following entries are already answered.
Field Binding Signal (fold over 6E7 parental antibody) (entry 6E7 antibody affinity modulation variant V7 (antibody, V domains shown) VH: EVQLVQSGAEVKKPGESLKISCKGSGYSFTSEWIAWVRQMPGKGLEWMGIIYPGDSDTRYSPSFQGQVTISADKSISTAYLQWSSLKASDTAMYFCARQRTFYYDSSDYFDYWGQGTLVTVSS VL: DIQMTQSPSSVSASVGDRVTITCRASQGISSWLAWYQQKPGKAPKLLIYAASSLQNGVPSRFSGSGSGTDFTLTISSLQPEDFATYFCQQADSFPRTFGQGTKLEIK ) reads 0.32

For 6E7 antibody affinity modulation variant V8 (antibody, V domains shown) VH: EVQLVQSGAEVKKPGESLKISCKGSGYSFTSYWIAWVRQMPGKGLEWMGIIYPGDSDTKYSPSFQGQVTISADKSISTAYLQWSSLKASDTAMYFCARQRTFYYDSSDYFDYWGQGTLVTVSS VL: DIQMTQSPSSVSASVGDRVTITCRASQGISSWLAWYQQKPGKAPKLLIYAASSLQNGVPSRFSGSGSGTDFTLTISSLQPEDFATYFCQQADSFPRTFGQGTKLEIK the binder record lists Binding Signal (fold over 6E7 parental antibody) as 0.77

Consider the additional binder presented here.
Recorded Binding Signal (fold over 6E7 parental antibody) (binder 6E7 antibody affinity modulation variant V56 (antibody, V domains shown) VH: EVQLVQSGAEVKKPGESLKISCKGSGYSFTSYWIAWVRQMPGKGLEWMGIIYPGDSDTRYQPSFQGQVTISADKSISTAYLQWSSLKASDTAMYFCARQRTFYYDSSDYFDYWGQGTLVTVSS VL: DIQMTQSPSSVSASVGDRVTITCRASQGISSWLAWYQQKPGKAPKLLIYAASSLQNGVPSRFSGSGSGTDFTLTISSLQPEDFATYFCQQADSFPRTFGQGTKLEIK ): 0.59

Data provenance: patent US20250019437A1
